Every entry's value here was drawn from patent US11376246B2.

- experimental details: in vitro
- particulars: mouse, plasma
measure: fraction unbound
Quick one: just the number, no unit, thanks!

[Q] What value of measured fraction unbound is listed for C[C@H](Nc1ccc(C#N)n(C)c1=O)c1cc2cc(Cl)ccc2[nH]c1=O ?
[A] 0.043

---

- experimental details: clinical
- particulars: human, in vivo
measure: half-life

[Q] // lookup half-life for C[C@H](Nc1ccc(C#N)n(C)c1=O)c1cc2cc(Cl)ccc2[nH]c1=O
[A] ~60 h

---

- experimental details: in vivo
- particulars: both, cynomolgus monkey
measure: NOAEL at 28 days (mg/kg/day)
// note: answer is a bare numeric in mg/kg/day

[Q] // lookup NOAEL at 28 days for C[C@H](Nc1ccc(C#N)n(C)c1=O)c1cc2cc(Cl)ccc2[nH]c1=O
[A] 30

---

- experimental details: in vivo
- particulars: cynomolgus monkey, threshold Cmax plasma concentration for QTc prolongation
measure: Cmax (ng/mL)
Write the answer as a number in ng/mL, unit excluded.

[Q] Which Cmax reading was recorded for the compound C[C@H](Nc1ccc(C#N)n(C)c1=O)c1cc2cc(Cl)ccc2[nH]c1=O [Compound 1] ?
[A] 7840

---

- Test system: HT-1080(IDH1-R132C/+)
- experimental details: Intracellular 2-HG suppression, HT-1080
- Type: cell-based
- particulars: Homo sapiens, 24 hr
measure: IC50

[Q] // IC50 lookup, key: C[C@H](Nc1ccc(C#N)n(C)c1=O)c1cc2cc(Cl)ccc2[nH]c1=O
[A] < 100 nM

---

- experimental details: in vivo
- particulars: both, cynomolgus monkey, po, 30 mg/kg/day, Cmax at the NOAEL, Day 28, combined-sex, 30 mg/kg/day
measure: Cmax (µg/mL)
Give just the numeric value; µg/mL need not be written.

[Q] Can you look up the measured Cmax of C[C@H](Nc1ccc(C#N)n(C)c1=O)c1cc2cc(Cl)ccc2[nH]c1=O [Compound 1] for me?
[A] 2.49

---

- experimental details: in vitro
- particulars: human, plasma
measure: fraction unbound
Just the number.

[Q] Endpoint output: fraction unbound of C[C@H](Nc1ccc(C#N)n(C)c1=O)c1cc2cc(Cl)ccc2[nH]c1=O [Compound 1] . Value?
[A] 0.055

---

- experimental details: Brain distribution after 6 hour intravenous infusion in rats
- Type: in vivo
- particulars: Sprague Dawley, rat, brain tissue; equilibrium dialysis; read-out: free fraction in brain (Fu, brain)
measure: fraction unbound

[Q] Dear colleague, I am looking for the recorded fraction unbound of the following molecule: C[C@H](Nc1ccc(C#N)n(C)c1=O)c1cc2cc(Cl)ccc2[nH]c1=O
[A] 0.05
